Values compiled from patent US20220025023A1.

- System under test: T1, TP-23 (also: biotinylated, site not given here)
- T1 construct: also called TP-23 peptide
- T1 peptide: TEDMTEDELREFFSQ
- Assay name: indirect ELISA, biotinylated 15-mer on streptavidin plate, hybridoma supernatant
Where no end group is shown, it is not given here.

>  <Binder>
ACI-7062-410H3-Ab1 (antibody, IgG1, V domains shown, also called 410H3B9; clone 7) VH: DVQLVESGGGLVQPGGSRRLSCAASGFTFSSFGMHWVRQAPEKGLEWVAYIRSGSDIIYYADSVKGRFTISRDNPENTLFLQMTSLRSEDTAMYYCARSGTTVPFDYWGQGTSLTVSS VL: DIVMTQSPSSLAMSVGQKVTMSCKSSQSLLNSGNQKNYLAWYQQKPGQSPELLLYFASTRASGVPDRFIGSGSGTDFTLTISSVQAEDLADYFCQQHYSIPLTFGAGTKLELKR

>  <binding result>
no binding

$$$$
>  <Binder>
ACI-7062-406E3-Ab2 (antibody, IgG2a, V domains shown, also called 406E3G10; clone 6) VH: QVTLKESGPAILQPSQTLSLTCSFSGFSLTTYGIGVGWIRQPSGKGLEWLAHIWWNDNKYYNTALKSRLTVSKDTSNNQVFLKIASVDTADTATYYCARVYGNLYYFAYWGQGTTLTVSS VL: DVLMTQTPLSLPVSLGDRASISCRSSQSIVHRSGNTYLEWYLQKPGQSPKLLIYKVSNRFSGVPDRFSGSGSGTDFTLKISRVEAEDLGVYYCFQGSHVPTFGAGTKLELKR

>  <binding result>
no binding

$$$$
>  <Binder>
ACI-7062-406E3-Ab1 (antibody, IgG2a, V domains shown, also called 406E3D5; clone 5) VH: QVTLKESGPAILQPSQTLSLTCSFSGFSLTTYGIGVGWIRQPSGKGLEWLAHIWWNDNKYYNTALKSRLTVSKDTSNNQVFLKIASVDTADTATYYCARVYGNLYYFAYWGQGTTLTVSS VL: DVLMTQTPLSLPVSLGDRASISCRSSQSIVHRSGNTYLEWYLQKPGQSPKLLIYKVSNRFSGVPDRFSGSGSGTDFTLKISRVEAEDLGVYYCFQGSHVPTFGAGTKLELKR

>  <binding result>
no binding

$$$$
